- Protocol Description: Blood lidocaine concentration after 2-hour constant-rate intramuscular infusion, literature (Ikeda et al.)
- Assay type: in vivo, Rats
- Condition Info: rat, dose 60 mg/kg, infusion t = 0-2 hours, time 12 hour, calculated with elimination half-life = 2 hours, read-out: blood drug concentration of lidocaine

Compound | concentration at 12 h [ng/mL]
CCN(CC)CC(=O)Nc1c(C)cccc1C [preparation in the reference, lidocaine] | 100

###

- Protocol Description: Blood lidocaine concentration after 2-hour constant-rate intramuscular infusion, literature (Ikeda et al.)
- Type: in vivo, Rats
- Condition Info: rat, dose 60 mg/kg, infusion t = 0-2 hours, time 8 hour, calculated with elimination half-life = 2 hours, read-out: blood drug concentration of lidocaine
Measured Parameter: concentration at 8 h (ng/mL)

Molecule | Measured Parameter | Observed Measurement
CCN(CC)CC(=O)Nc1c(C)cccc1C [preparation in the reference, lidocaine] | concentration at 8 h | 200

###

- Protocol Description: Blood lidocaine concentration after 2-hour constant-rate intramuscular infusion, literature (Ikeda et al.)
- Format: in vivo, Rats
- Condition Info: rat, dose 60 mg/kg, infusion t = 0-2 hours, time 18 hour, calculated with elimination half-life = 2 hours, read-out: blood drug concentration of lidocaine

Molecule | concentration at 18 h / ng/mL
CCN(CC)CC(=O)Nc1c(C)cccc1C [preparation in the reference, lidocaine] | 6.25

###

- Protocol Description: Blood lidocaine concentration after 2-hour constant-rate intramuscular infusion, literature (Ikeda et al.)
- Assay type: in vivo, Rats
- Condition Info: rat, dose 60 mg/kg, infusion t = 0-2 hours, time 42 hour, calculated with elimination half-life = 2 hours, read-out: blood drug concentration of lidocaine
Measured Parameter: concentration at 42 h (ng/mL)

Molecule | Observed Measurement
CCN(CC)CC(=O)Nc1c(C)cccc1C [preparation in the reference, lidocaine] | 0

###

- Protocol Description: Blood lidocaine concentration after 2-hour constant-rate intramuscular infusion, literature (Ikeda et al.)
- Format: in vivo, Rats
- Condition Info: rat, dose 60 mg/kg, infusion t = 0-2 hours, time 72 hour, calculated with elimination half-life = 2 hours, read-out: blood drug concentration of lidocaine

Molecule | Unit Abbrev | concentration at 72 h
CCN(CC)CC(=O)Nc1c(C)cccc1C [preparation in the reference, lidocaine] | ng/mL | 0

###

- Protocol Description: Blood lidocaine concentration after 2-hour constant-rate intramuscular infusion, literature (Ikeda et al.)
- Type: in vivo, Rats
- Condition Info: rat, dose 60 mg/kg, infusion t = 0-2 hours, time 54 hour, calculated with elimination half-life = 2 hours, read-out: blood drug concentration of lidocaine

Compound | Unit Abbrev | concentration at 54 h
CCN(CC)CC(=O)Nc1c(C)cccc1C [preparation in the reference, lidocaine] | ng/mL | 0

###

- Protocol Description: Blood lidocaine concentration after 2-hour constant-rate intramuscular infusion, literature (Ikeda et al.)
- Type: in vivo, Rats
- Condition Info: rat, dose 60 mg/kg, infusion t = 0-2 hours, time 36 hour, calculated with elimination half-life = 2 hours, read-out: blood drug concentration of lidocaine
Measured Parameter: concentration at 36 h (ng/mL)

Compound | Observed Measurement
CCN(CC)CC(=O)Nc1c(C)cccc1C [preparation in the reference, lidocaine] | 0

###

- Protocol Description: Blood lidocaine concentration after 2-hour constant-rate intramuscular infusion, literature (Ikeda et al.)
- Type: in vivo, Rats
- Condition Info: rat, dose 60 mg/kg, infusion t = 0-2 hours, time 24 hour, calculated with elimination half-life = 2 hours, read-out: blood drug concentration of lidocaine

Compound | concentration at 24 h
CCN(CC)CC(=O)Nc1c(C)cccc1C [preparation in the reference, lidocaine] | 1.6 ng/mL

Numbers sourced from patent US12403107B2.
